This collection of values is drawn from patent US20200223906A1.

experimental.target: RSV F protein of subtype A (strain A2) on recombinant mKate-RSV virus (Respiratory syncytial virus subtype A …, UniProt P03420 26-574)
assay.explanation: cell-based or functional assay
Form field: Neut IC50 (µg/ml) subtype A (one value per entry).
Just the number in µg/mL, nothing appended.

binder="ADI-18918 (antibody, V domains shown, full-length IgG from yeast) VH: QVQLVQSGAEVKKPGESLKISCKGSGYSFSSFWIGWVRQMPGKGLEWMGIIYPGDSDTRYSPSFQGQVTMSADTSINTAYLQWNSVKASDTAIYYCARLPVGSYYYFNLWGRGTLVTVSS VL: EIVMTQSPATLSVSPGESATLFCRASQSISSDLAWYQQRPGQAPRLLIYDASTRATGVPARFSATGSEAEFTLTISGLQSEDFAVYYCQQYNNWLSWTFGQGTKLEIK" output_unit=µg/mL reported_value=0.377
binder="ADI-18936 (antibody, V domains shown, full-length IgG from yeast) VH: EVQLLESGAEVKKPGASVRVSCKASGYTFTDYFMNWVRQAPGGGLEWMGWVNPLSGATKYAQKFQGRVTMTTDTSITTGYLDLRSLRVDDTAIYFCASQSSPYTPGAMGVWGQGTTVTVSS VL: DIQVTQSPSSLSASVGDRVTITCRASQSISGYLSWYQQKPGKAPNLLIYATSNLYSGVPSRFSGRDSGTDFTLTITSLQPEDFATYFCQLNSGALFTFGPGTKVEIK" output_unit=µg/mL reported_value=0.032

Exercise: Need Neut IC50 (µg/ml) subtype A, item ADI-18877 (antibody, V domains shown, full-length IgG from yeast; also called Antibody Number 234; Ab # 234) VH: QVQLVQSGTEVKKPGASVKVSCKAAGYTFSNYGVSWVRQAPGQGLEWMGWISAYNGNTKFAQKVQGRLTMTTDTSTSTAYMELRNLRSDDTAVYYCARESGATAAAMFDYWGQGTLVTVSS VL: ETTLTQSPLSLPVTLGQPASISCRSSQSLEYSDGNIYLSWFQQRPGQSPRRLIYKVSHRDSGVPDRFSGSGSGTDFTLKIARVEAEDVAVYYCMQAIHWPRTFGQGTKVDIK
Key: 0.41

Exercise: Need Neut IC50 (µg/ml) subtype A, item ADI-18908 (antibody, V domains shown, full-length IgG from yeast) VH: QVQLVESGGGLVKPGGSLRLSCAASGFTFSSFGMHWVRQAPGQGLEWVASITGGSSYINYADSVKGRFTISRDNAKKSLSLQMKNLRAEDTAEYYCVRGVLPGGTGGGWFDSWGQGTLVTVSS VL: QSVLTQPPSMSGAPGQRVTISCTGTSSNIGAGYDVQWYQQFPGTAPKLLISGNNNRPSGVPDRFSGSKSGASASLAITGLQAEDEADYYCQSYDYSLNWVFGGGTKLTVL
Key: 0.018
